# Tested On: WT KIR2.1 (Homo sapiens)
# Construct: expressed in transfected cells; host or cells: HEK293T
# Test: Whole cell patch clamp, WT KIR2.1 currents
# Assay type: cell-based
# Condition Context: whole cell mode
Measurement Name: IC50

{"Molecule": "N=C(Nc1ccc(OCCCCCOc2ccc(NC(=N)c3ccccc3)cc2)cc1)c1ccccc1 [PA-6]", "Endpoint Value": "1000 to 3000 nM"}

====

# Tested On: WT KIR2.1 (Homo sapiens, UniProt P63252)
# Construct: expressed in transfected cells; host or cells: HEK293T
# Test: Inside-out patch clamp, ramp protocol, WT KIR2.1 currents
# Assay type: cell-based
# Condition Context: at −80 mV, inside-out mode, HEK293T, 21 °C; read-out: IC50, inward current
# Excerpt: Mutations V93I and D172N were engineered into a human KCNJ2-pcDNA3 expression construct, using the QuikChange II XL Site-Directed Mutagenesis Kit (Stratagene, La Jolla, CA) and custom designed primers. The presence of the introduced mutations was confirmed by Sanger sequencing. HEK293T cells were transfected with WT, V93I or D172N constructs together with a GFP expression construct to enable detection of transfected cells. […]
pIC50: −log10 of the molar value.

{"Compound Structure String": "N=C(Nc1ccc(OCCCCCOc2ccc(NC(=N)c3ccccc3)cc2)cc1)c1ccccc1", "pIC50": 7.28}

====

# Tested On: V93I KIR2.1 (Homo sapiens, UniProt P63252, V93I)
# Construct: expressed in transfected cells; host or cells: HEK293T
# Sequence (P63252 1-427 V93I): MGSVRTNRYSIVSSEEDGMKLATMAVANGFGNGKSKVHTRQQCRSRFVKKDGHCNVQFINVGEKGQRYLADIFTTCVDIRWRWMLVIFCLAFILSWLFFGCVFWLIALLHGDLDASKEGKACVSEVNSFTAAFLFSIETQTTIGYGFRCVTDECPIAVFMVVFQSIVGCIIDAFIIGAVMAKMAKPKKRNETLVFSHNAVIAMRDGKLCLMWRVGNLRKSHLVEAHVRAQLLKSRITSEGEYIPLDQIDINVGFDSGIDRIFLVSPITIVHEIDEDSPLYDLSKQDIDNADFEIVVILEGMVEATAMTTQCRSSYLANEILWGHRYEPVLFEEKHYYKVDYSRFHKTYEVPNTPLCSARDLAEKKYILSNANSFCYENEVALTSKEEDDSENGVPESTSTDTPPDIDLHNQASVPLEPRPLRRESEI
# Test: Inside-out patch clamp, ramp protocol, V93I KIR2.1 currents
# Format: cell-based
# Condition Context: at +50 mV, inside-out mode, HEK293T, 21 °C; read-out: IC50, outward current

{"Compound Structure String": "N=C(Nc1ccc(OCCCCCOc2ccc(NC(=N)c3ccccc3)cc2)cc1)c1ccccc1", "IC50 [nM]": 43.6}

====

# Tested On: V93I KIR2.1 (Homo sapiens, UniProt P63252, V93I)
# Construct: expressed in transfected cells; host or cells: HEK293T
# Sequence (P63252 1-427 V93I): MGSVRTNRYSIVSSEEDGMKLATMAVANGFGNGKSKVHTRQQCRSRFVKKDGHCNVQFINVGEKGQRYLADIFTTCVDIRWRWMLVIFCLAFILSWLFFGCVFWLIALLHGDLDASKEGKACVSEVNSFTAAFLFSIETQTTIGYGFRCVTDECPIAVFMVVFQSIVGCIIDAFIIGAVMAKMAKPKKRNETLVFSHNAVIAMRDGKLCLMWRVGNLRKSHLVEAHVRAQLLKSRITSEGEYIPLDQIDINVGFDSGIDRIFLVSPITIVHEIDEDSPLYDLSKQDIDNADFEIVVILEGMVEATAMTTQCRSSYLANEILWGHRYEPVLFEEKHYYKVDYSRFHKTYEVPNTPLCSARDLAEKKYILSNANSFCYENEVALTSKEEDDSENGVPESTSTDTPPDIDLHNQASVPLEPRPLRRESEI
# Test: Inside-out patch clamp, ramp protocol, V93I KIR2.1 currents
# Type: cell-based
# Condition Context: at −80 mV, inside-out mode, HEK293T, 21 °C; read-out: IC50, inward current

{"Compound Structure String": "N=C(Nc1ccc(OCCCCCOc2ccc(NC(=N)c3ccccc3)cc2)cc1)c1ccccc1", "IC50, nM": 58}

====

# Tested On: D172N KIR2.1 (Homo sapiens, UniProt P63252, D172N)
# Construct: expressed in transfected cells; host or cells: HEK293T
# Test: Inside-out patch clamp, ramp protocol, D172N KIR2.1 currents
# Type: cell-based
# Condition Context: at +50 mV, inside-out mode, HEK293T, 21 °C; read-out: IC50, outward current
pIC50: −log10 of the molar value.
Measurement Name: pIC50

{"Compound Structure String": "N=C(Nc1ccc(OCCCCCOc2ccc(NC(=N)c3ccccc3)cc2)cc1)c1ccccc1", "Endpoint Value": 6.89}

====

# Tested On: D172N KIR2.1 (Homo sapiens, UniProt P63252, D172N)
# Construct: expressed in transfected cells; host or cells: HEK293T
# Test: Whole cell patch clamp, D172N KIR2.1 currents
# Format: cell-based
# Condition Context: whole cell mode
Measurement Name: IC50

{"Compound Structure String": "N=C(Nc1ccc(OCCCCCOc2ccc(NC(=N)c3ccccc3)cc2)cc1)c1ccccc1", "Endpoint Value": "1000 to 3000 nM"}
